System: V. fischeri luxRI system
Assay summary: N-acylated homoserine lactone (AHL) quorum sensing assay, GFP reporter strain
Type: cell-based, E. coli
Reported conditions: Table 4 comparative results; first number of the cell; lower = better
So I've got a bunch of molecules here, and I need their AIC40 values.
Simply state the number, no unit and no words.

Provide one value: measured AIC40 of C=C1NC(=O)C=C1c1ccc(Br)cc1 [drawing 25]
0.49

Provide one value: measured AIC40 of `C=C1C(c2ccccc2)=CC(=O)N1C`
52.76

Provide one value: measured AIC40 of `C=C1NC(=O)C=C1Cc1ccccc1`
69.45
